Value source: patent EP0321364A2

- Test system: Rms823/Escherichia coli K-12 W3630
- ASSAY_EXPLANATION: MIC, serial dilution method in Müller-Hinton agar
- Format: cell-based
- MEASUREMENT_CONDITIONS: 18 h
- Method: The antibacterial activities of the cephalosporin compounds of the formula (I) according to this invention, specifically the final product compounds of the Examples 1 to 6 given hereinafter, were assayed in term of their minimum inhibitory concentrations (MIC; mcg/ml) against various test bacteria, as determined according to a standard serial dilution method in Müller-Hinton agar medium (a product of Difico company), where the incubation was made at 37°C for 18 hours. […]
VALUE_TYPE: MIC

// worked examples, MIC included
C/C=C\C1=C(C(=O)O)N2C(=O)C(NC(=O)[C@H](N)c3ccc(CO)c(O)c3)[C@H]2SC1 (stereo partly shown) = 100 µg/mL
COCC1=C(C(=O)O)N2C(=O)C(NC(=O)[C@H](N)c3ccc(CO)c(O)c3)[C@H]2SC1 (stereo partly shown) = > 100 µg/mL
C/C=C\C1=C(C(=O)O)N2C(=O)C(NC(=O)[C@H](N)c3ccc(CO)c(OC)c3)[C@H]2SC1 (stereo partly shown) = > 100 µg/mL

Here is the next item to consider.
stdin: Field request: MIC | item: C/C=C\C1=C(C(=O)O)N2C(=O)C(NC(=O)[C@H](N)c3ccc(COC)c(OC)c3)[C@H]2SC1 (stereo partly shown)
stdout: > 100 µg/mL
